# ASSAYED TARGET: HLA-B*53:01
# ASSAY TEXT: IEDB peptide-MHC binding, purified MHC/competitive/radioactivity; filed as Kd, often an IC50 or EC50 that approximates it; bounds were set here for any values at or beyond the usual limits of such assays
# STATED CONDITIONS: source organism: Dengue virus 4 Philippines/H241/1956
EXPERIMENTAL READOUT: Kd (nM)
Give just the number in nM; leave the unit off.

CHAIN SEQUENCE	Kd [nM]
LPESLETLML	96.1

Note: attention shifts to another entry.
Exam item: Provide Kd value for the following sequence: TPFGQQRVF
Marked response: 264

====

# ASSAYED TARGET: HLA-A*30:01
# ASSAY TEXT: IEDB peptide-MHC binding, purified MHC/competitive/radioactivity; filed as Kd, often an IC50 or EC50 that approximates it; bounds were set here for any values at or beyond the usual limits of such assays
# STATED CONDITIONS: source organism: Mammarenavirus brazilense
EXPERIMENTAL READOUT: Kd (µM)
Value expressed in µM; do not type the unit.

Exam item: // Input: YNISRKIVY . Output its Kd only.
Marked response: 6.6

====

# ASSAYED TARGET: HLA-B*39:01
# ASSAY TEXT: IEDB peptide-MHC binding, purified MHC/competitive/fluorescence; filed as Kd, often an IC50 or EC50 that approximates it; bounds were set here for any values at or beyond the usual limits of such assays
# STATED CONDITIONS: source organism: Human immunodeficiency virus 1
EXPERIMENTAL READOUT: Kd

Exam item: Identify the reported Kd for the following entry. IEVKDTKEAL
Marked response: ≥ 20 µM

====

# ASSAYED TARGET: HLA-A*02:12
# ASSAY TEXT: IEDB peptide-MHC binding, purified MHC/competitive/fluorescence; filed as Kd, often an IC50 or EC50 that approximates it; bounds were set here for any values at or beyond the usual limits of such assays
# STATED CONDITIONS: source organism: Escherichia coli str. K-12 substr. W3110
EXPERIMENTAL READOUT: Kd (nM)
I only need the number, in nM, no unit after it.

Exam item: Please supply the value of reported Kd for the item IQFDWYPTS
Marked response: 624

====

# ASSAYED TARGET: HLA-A*29:02
# ASSAY TEXT: IEDB peptide-MHC binding, purified MHC/direct/fluorescence; filed as Kd, often an IC50 or EC50 that approximates it; bounds were set here for any values at or beyond the usual limits of such assays
# STATED CONDITIONS: source organism: Limestone Canyon virus
pKd: −log10 of the molar value.
EXPERIMENTAL READOUT: pKd

Exam item: Consider the sequence SPVMGVIGF . State its measured pKd.
Marked response: ≤ 4.70

====

# ASSAYED TARGET: HLA-A*02:03
# ASSAY TEXT: IEDB peptide-MHC binding, purified MHC/competitive/radioactivity; filed as Kd, often an IC50 or EC50 that approximates it; bounds were set here for any values at or beyond the usual limits of such assays
# STATED CONDITIONS: source organism: Mammarenavirus tacaribeense
EXPERIMENTAL READOUT: Kd

Exam item: Supply Kd measured with HLA-A*02:03 for YNCKCCWFA .
Marked response: ≥ 31.8 µM

====

# ASSAYED TARGET: HLA-A*26:01
# ASSAY TEXT: IEDB peptide-MHC binding, purified MHC/competitive/fluorescence; filed as Kd, often an IC50 or EC50 that approximates it; bounds were set here for any values at or beyond the usual limits of such assays
# STATED CONDITIONS: source organism: Variola virus
EXPERIMENTAL READOUT: Kd

Exam item: Output Kd of ILQDRIRMY
Marked response: ≥ 20 µM

====

# ASSAYED TARGET: HLA-B*15:02
# ASSAY TEXT: IEDB peptide-MHC binding, purified MHC/direct/fluorescence; filed as Kd, often an IC50 or EC50 that approximates it; bounds were set here for any values at or beyond the usual limits of such assays
# STATED CONDITIONS: source organism: Escherichia coli O157:H7
EXPERIMENTAL READOUT: Kd

Exam item: Tell me Kd reported for YQAFRTKVH
Marked response: ≥ 20 µM

====

# ASSAYED TARGET: HLA-A*02:02
# ASSAY TEXT: IEDB peptide-MHC binding, purified MHC/competitive/radioactivity; filed as Kd, often an IC50 or EC50 that approximates it; bounds were set here for any values at or beyond the usual limits of such assays
# STATED CONDITIONS: source organism: Lymphocytic choriomeningitis virus (strain Armstrong)
EXPERIMENTAL READOUT: Kd (nM)
Hi! Could you send only the number? It should be in nM, unit omitted.

Exam item: // output Kd; input ALMDCIIFES ; system HLA-A*02:02
Marked response: 2.13

====

# ASSAYED TARGET: HLA-A*02:06
# ASSAY TEXT: IEDB peptide-MHC binding, purified MHC/competitive/radioactivity; filed as Kd, often an IC50 or EC50 that approximates it; bounds were set here for any values at or beyond the usual limits of such assays
# STATED CONDITIONS: source organism: Vaccinia virus WR
Rule: measured Kd below 0.7 µM gets met; anything equal to or greater than 0.7 µM gets not met.

CHAIN SEQUENCE	ASSAYED TARGET	CLASS ASSIGNMENT
YMVTDKTAYI	HLA-A*02:06	met
IITILQDIV	HLA-A*02:06	met
KILSDENYLL	HLA-A*02:06	met

Exam item: Is Kd of ITHTNITTLL strictly below 0.7 µM?
Marked response: not met

Exam item: Given the entry TIVSRSSRGV , would its reported Kd be below 0.7 µM?
Marked response: not met

Exam item: Take the sequence LVSDCASTI and say whether its Kd is less than 0.7 µM.
Marked response: met

Exam item: Report whether reported Kd is lower than 0.7 µM (strictly) for DIPTFNSLNT
Marked response: met

Exam item: Would you kindly verify if Kd of KIEDLINQLV is strictly less than 0.7 µM?
Marked response: met

Exam item: Determine whether this sequence shows Kd lower than 0.7 µM (ties excluded): KVTGSYNLV
Marked response: met

Exam item: Please determine if SMYTRLRQDT is below 0.7 µM in terms of Kd.
Marked response: not met

Exam item: Please state whether Kd is below 0.7 µM for CVDIFTEGKI
Marked response: not met

Exam item: In plain terms, does YLLMHLVSL come in under 0.7 µM for Kd?
Marked response: met

Exam item: A record lists RASTTENAA . Is its Kd below 0.7 µM?
Marked response: not met

Exam item: is_below(Kd, 0.7 µM) for LALKNSQAEL ?
Marked response: not met

Exam item: For VAMLLTHGA , is the recorded Kd below the cut-off of 0.7 µM?
Marked response: not met

====

# ASSAYED TARGET: HLA-A*02:03
# ASSAY TEXT: IEDB peptide-MHC binding, purified MHC/competitive/radioactivity; filed as Kd, often an IC50 or EC50 that approximates it; bounds were set here for any values at or beyond the usual limits of such assays
# STATED CONDITIONS: source organism: Mammarenavirus brazilense
EXPERIMENTAL READOUT: Kd

Exam item: Give the value of Kd reported for the following: GLLEWIFRA
Marked response: 225 nM

====

# ASSAYED TARGET: HLA-A*11:01
# ASSAY TEXT: IEDB peptide-MHC binding, purified MHC/competitive/fluorescence; bounds were set here for any values at or beyond the usual limits of such assays
# STATED CONDITIONS: source organism: Variola virus
// reported pIC50 for each item listed
Please express pIC50 as -log10 of the molar concentration.

CHAIN SEQUENCE	pIC50
LIIDEVHEH	4.16

Could you now look at the following sequence, please?
Exam item: # return recorded pIC50 for entry THKLSLTKL
Marked response: 4.34

====

# ASSAYED TARGET: HLA-A*33:01
# ASSAY TEXT: IEDB peptide-MHC binding, purified MHC/competitive/radioactivity; filed as Kd, often an IC50 or EC50 that approximates it; bounds were set here for any values at or beyond the usual limits of such assays
# STATED CONDITIONS: source organism: Dengue virus 4 Philippines/H241/1956
Listing: pKd of selected sequences
Notebook: values listed as pKd are -log10 of the concentration (mol/L).

CHAIN SEQUENCE	pKd
MVLAFITFLR	7.65

Exam item: Identify the reported pKd for the following entry. FTTRLLSSTR
Marked response: 7.07

====

# ASSAYED TARGET: HLA-B*35:01
# ASSAY TEXT: IEDB peptide-MHC binding, purified MHC/competitive/radioactivity; filed as Kd, often an IC50 or EC50 that approximates it; bounds were set here for any values at or beyond the usual limits of such assays
# STATED CONDITIONS: source organism: Dengue virus 4 Philippines/H241/1956
EXPERIMENTAL READOUT: Kd (µM)
Write the answer as a number in µM, unit excluded.

Please review the following examples before continuing.
CHAIN SEQUENCE	Kd (µM)
LPESLETLML	0.63
TPQDNQLIY	0.00291
TPEAKNSTF	1.68
LGAQALPVY	0.629

// next item, Kd requested
Exam item: Hello, please tell me recorded Kd for this one: TPFGQQRVF
Marked response: 0.0474
